target: Voltage-gated L-type calcium channel (Rattus norvegicus, UniProt P22002+Q02485+P27732); test: Ability to inhibit [3H]nitrendipine binding to the calcium channel receptor(CCR) in rat cerebral cortex homogenate.; format: tissue-based
ENDPOINT: IC50 (nM)

1) CCCC(=O)OC1=C(c2ccccc2)Sc2ccccc2-n2cccc21 :: 4.88

(I) CC(=O)OC1=C(c2ccccc2)Sc2ccccc2-n2cccc21
(II) COc1ccc(C2=C(OC(C)=O)c3cccn3-c3ccccc3S2)cc1
Ask: Rank I against II by their IC50 values and give the higher one. Label of pick, please.
Result: I

----------
target: Voltage-dependent L-type calcium channel subunit alpha-1C (Rattus norvegicus, UniProt P22002); test: Ability to inhibit [3H]nitrendipine binding to the L-type calcium channel receptor(CCR) in rat heart homogenate.; type: tissue-based
Sequence (P22002 whole entry): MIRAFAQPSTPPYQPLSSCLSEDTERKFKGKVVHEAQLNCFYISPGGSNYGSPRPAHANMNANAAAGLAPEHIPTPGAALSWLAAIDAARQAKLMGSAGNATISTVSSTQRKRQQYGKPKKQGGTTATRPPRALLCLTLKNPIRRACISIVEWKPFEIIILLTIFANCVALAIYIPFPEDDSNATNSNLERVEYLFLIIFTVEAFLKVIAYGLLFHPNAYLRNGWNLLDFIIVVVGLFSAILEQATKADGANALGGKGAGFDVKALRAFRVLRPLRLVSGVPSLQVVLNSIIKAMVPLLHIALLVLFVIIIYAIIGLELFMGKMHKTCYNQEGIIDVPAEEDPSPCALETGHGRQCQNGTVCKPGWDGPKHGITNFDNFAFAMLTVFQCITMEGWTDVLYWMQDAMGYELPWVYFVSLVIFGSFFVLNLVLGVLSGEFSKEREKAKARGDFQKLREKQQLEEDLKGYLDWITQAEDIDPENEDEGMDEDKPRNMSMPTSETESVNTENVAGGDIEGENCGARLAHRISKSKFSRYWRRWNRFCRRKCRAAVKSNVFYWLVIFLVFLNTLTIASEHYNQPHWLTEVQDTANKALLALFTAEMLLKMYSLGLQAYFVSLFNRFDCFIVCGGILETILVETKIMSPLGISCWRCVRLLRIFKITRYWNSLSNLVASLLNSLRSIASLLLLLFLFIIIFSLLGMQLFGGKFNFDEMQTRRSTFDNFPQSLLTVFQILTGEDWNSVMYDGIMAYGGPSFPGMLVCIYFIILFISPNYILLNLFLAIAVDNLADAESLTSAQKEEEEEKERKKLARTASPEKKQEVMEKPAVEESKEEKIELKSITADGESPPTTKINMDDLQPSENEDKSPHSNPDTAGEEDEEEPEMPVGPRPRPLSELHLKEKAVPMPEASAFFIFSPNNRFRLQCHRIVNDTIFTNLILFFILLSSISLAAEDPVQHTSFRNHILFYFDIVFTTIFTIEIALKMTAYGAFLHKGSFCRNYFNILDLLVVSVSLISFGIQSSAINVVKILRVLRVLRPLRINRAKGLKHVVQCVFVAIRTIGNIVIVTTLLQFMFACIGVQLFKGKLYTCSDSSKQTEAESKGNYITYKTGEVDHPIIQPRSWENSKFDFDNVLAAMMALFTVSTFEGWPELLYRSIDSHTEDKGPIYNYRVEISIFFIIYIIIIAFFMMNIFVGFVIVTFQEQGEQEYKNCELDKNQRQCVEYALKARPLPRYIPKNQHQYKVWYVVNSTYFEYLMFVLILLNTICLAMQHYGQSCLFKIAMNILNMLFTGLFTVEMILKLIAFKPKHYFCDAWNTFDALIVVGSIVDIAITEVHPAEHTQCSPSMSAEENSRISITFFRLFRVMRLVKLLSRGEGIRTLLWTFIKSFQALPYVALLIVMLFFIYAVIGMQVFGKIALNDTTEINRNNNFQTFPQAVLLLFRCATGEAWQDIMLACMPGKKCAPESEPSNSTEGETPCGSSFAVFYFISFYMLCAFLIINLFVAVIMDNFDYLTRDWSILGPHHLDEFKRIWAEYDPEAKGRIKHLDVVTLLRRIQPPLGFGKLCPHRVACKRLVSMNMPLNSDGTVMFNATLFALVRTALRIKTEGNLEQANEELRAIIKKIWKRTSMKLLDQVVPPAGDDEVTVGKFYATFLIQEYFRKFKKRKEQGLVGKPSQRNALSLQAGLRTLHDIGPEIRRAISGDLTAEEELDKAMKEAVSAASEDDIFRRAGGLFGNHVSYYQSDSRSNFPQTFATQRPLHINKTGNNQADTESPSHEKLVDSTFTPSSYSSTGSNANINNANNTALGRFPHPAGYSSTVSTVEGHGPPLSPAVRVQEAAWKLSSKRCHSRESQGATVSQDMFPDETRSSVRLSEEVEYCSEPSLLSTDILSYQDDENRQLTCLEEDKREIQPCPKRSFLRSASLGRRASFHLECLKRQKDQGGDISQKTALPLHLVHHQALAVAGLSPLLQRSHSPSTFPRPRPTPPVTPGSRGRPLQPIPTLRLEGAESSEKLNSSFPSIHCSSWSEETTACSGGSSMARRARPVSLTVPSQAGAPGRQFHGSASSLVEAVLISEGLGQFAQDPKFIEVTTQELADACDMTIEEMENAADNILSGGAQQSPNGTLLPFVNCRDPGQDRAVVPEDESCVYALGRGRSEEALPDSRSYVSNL
pIC50: −log10 of the molar value.
ENDPOINT: pIC50

Look over these answered cases.
1. CC(=O)OC1=C(c2ccccc2)Sc2ccccc2-n2cccc21 :: 6.66
2. COc1ccc(C2=C(OC(C)=O)c3cccn3-c3ccccc3S2)cc1 :: 6.47
3. CCCC(=O)OC1=C(c2ccc(OC)cc2)Sc2ccccc2-n2cccc21 :: 6.82

(P) CC(=O)O[C@@H]1c2ccc(CN(C)C)n2-c2cccc(Cl)c2S[C@@H]1c1ccccc1
(Q) CCCCC(=O)OC1=C(c2ccccc2)Sc2ccccc2-n2cccc21
Ask: Looking at recorded values for pIC50, does P or Q come in lower? Label of pick, please.
Result: Q

Reference for the values: ChEMBL document CHEMBL1129246
